// provenance: ChEMBL document CHEMBL1130739

target: Dihydroorotate dehydrogenase (quinone), mitochondrial (Homo sapiens, UniProt Q02127); assay: Inhibition of human recombinant dihydroorotate dehydrogenase (DHODase)
Sequence (Q02127 whole entry): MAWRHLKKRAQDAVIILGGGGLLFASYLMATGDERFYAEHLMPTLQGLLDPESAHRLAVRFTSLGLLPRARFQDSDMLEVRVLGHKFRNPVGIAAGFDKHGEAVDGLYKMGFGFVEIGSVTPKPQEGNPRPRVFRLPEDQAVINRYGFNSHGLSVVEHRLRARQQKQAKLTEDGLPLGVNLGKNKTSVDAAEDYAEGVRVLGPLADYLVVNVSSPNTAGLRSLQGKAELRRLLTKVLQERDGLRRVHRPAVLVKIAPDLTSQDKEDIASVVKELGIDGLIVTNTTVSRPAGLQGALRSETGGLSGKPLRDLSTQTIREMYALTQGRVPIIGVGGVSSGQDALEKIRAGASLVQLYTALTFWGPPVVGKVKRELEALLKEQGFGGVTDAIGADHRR
So I've got a bunch of compounds here, and I need their Ki values.
The reply should be a number in nM, with the unit left off.

**Query** # return recorded Ki for entry Cc1ccccc1-c1ccc2c(c1)SCc1c-2nc2ccc(F)cc2c1C(=O)O
**Result** 27

**Query** Let me know recorded Ki for Cc1cccc(-c2ccc3c(c2)CCc2c-3nc3ccc(F)cc3c2C(=O)O)c1 , thanks.
**Result** 59

**Query** Complete the entry with Ki for Cc1ccc(-c2ccc3c(c2)CCc2c-3nc3ccc(F)cc3c2C(=O)O)cc1
**Result** 40

**Query** Give Ki for Cc1cccc(-c2ccc3c(n2)CCc2c-3nc3ccc(F)cc3c2C(=O)O)c1
**Result** 81

**Query** Identify measured Ki corresponding to O=C(O)c1c2c(nc3ccc(F)cc13)-c1cnc(-c3ccccc3)nc1CC2
**Result** 380

**Query** Indicate the recorded Ki value for this compound: O=C(O)c1c2c(nc3ccc(F)cc13)-c1ccc(-c3ccccc3)cc1SC2
**Result** 17

**Query** Provide Ki value for the following compound: Cc1ccc(-c2ccc3c(c2)SCc2c-3nc3ccc(F)cc3c2C(=O)O)cc1
**Result** 13

**Query** Hello, please tell me recorded Ki for this one: Cc1cccc(-c2ccc3c(c2)SCc2c-3nc3ccc(F)cc3c2C(=O)O)c1
**Result** 37

**Query** # return recorded Ki for input Cc1ccccc1-c1ccc2c(c1)CCc1c-2nc2ccc(F)cc2c1C(=O)O
**Result** 10

**Query** Answer with reported Ki of COc1cccc(-c2ccc3c(c2)CCc2c-3nc3ccc(F)cc3c2C(=O)O)c1
**Result** 25

**Query** Specify Ki for O=C(O)c1c2c(nc3ccc(F)cc13)-c1ccc(-c3ccoc3)cc1CC2 and stop.
**Result** 190

**Query** Quickly give me recorded Ki for O=C(O)c1c2c(nc3ccc(F)cc13)-c1ccc(-c3ccccc3)cc1CS2
**Result** 170

**Query** Specify Ki for O=C(O)c1c2c(nc3ccc(F)cc13)-c1ccc(-c3ccccc3F)cc1CC2 and stop.
**Result** 34

**Query** Please look at this compound and report its Ki: Cc1ccc(-c2ccc3c(c2)CSc2c-3nc3ccc(F)cc3c2C(=O)O)cc1
**Result** 218

**Query** Dear colleague, please send me the reported Ki for O=C(O)c1c2c(nc3ccc(C(F)(F)F)cc13)-c1ccc(-c3ccccc3)cc1CC2 when you can.
**Result** 31

**Query** Indicate the recorded Ki value for this compound: O=C(O)c1c2c(nc3ccc(F)cc13)-c1ccc(-c3ccccc3)nc1CC2
**Result** 409

**Query** Output measured Ki for this item: COc1cccc(-c2ccc3c(n2)CCc2c-3nc3ccc(F)cc3c2C(=O)O)c1
**Result** 160
